# TESTED_TARGET: canine TRPM8 (Canis lupus familiaris)
# Sequence (Q1A7N1 1-1104): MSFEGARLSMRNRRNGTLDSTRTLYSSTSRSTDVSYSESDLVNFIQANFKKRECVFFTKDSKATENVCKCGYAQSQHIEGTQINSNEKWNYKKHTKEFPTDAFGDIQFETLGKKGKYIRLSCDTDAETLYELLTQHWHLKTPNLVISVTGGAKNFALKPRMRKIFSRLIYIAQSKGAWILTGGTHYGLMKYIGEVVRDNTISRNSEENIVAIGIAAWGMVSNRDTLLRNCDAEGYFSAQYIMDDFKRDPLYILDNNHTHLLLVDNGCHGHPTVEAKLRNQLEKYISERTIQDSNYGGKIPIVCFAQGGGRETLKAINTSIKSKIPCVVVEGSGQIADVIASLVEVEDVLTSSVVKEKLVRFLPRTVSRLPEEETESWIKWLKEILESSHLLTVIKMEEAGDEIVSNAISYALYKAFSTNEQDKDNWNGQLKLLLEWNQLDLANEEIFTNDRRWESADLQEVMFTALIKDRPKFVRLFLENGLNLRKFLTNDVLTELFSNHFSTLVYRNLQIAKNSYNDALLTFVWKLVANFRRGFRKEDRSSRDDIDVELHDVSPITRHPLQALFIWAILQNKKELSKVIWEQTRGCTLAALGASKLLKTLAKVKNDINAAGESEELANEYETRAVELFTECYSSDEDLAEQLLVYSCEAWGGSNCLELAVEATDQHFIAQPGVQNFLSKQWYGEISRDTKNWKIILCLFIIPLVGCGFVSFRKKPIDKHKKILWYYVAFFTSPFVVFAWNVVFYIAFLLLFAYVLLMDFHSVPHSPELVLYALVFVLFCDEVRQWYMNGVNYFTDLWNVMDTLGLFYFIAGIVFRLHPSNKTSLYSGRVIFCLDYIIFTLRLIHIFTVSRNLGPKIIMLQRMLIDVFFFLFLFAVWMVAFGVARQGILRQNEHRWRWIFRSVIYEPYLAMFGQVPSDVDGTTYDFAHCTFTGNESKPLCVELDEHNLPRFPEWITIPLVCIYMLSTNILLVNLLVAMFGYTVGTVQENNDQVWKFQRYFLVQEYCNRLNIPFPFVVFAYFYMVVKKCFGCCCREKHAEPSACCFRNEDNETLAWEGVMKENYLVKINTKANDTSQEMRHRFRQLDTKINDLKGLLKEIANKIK
# ASSAY_REMARKS: In Vitro Canine TRPM8 Functional Assay (Ca2+ fluorescence, icilin activation)
# Assay type: cell-based
# RUN_PARAMETERS: compound at 0.2 μM; canine TRPM8, icilin activation; read-out: % Inh @ 0.2
PROPERTY_NAME: inhibition at 0.2 µM (%)

[[record]]
compound = "O=S(=O)(c1ccc(-c2nnn[nH]2)cc1)N(Cc1ccc(F)c(C(F)(F)F)c1)c1cc2ccccc2s1 [Compound 424]"
tested_target = "canine TRPM8 (Canis lupus familiaris)"
reported_value = 95

[[record]]
compound = "CN(C)C1=C(N(CCC2CC2)S(=O)(=O)c2ccccc2)S(=O)(=O)c2ccccc21 [Compound 643]"
tested_target = "canine TRPM8 (Canis lupus familiaris)"
reported_value = 103

[[record]]
compound = "COC(=O)c1ccc(S(=O)(=O)N(CCCCC(F)(F)F)c2sc3ccccc3c2C(C)C)cc1 [Compound 565]"
tested_target = "canine TRPM8 (Canis lupus familiaris)"
reported_value = 74.4

[[record]]
compound = "CS(=O)(=O)Nc1c(N(Cc2ccc(F)c(C(F)(F)F)c2)S(=O)(=O)c2ccccc2)sc2ccccc12 [Compound 508]"
tested_target = "canine TRPM8 (Canis lupus familiaris)"
reported_value = 47

[[record]]
compound = "O=S1(=O)C(N(Cc2ccc(F)c(C(F)(F)F)c2)S(=O)(=O)c2ccccc2)=Cc2ccccc21 [Compound 421]"
tested_target = "canine TRPM8 (Canis lupus familiaris)"
reported_value = 90

[[record]]
compound = "Cc1c(N(CCOC(C)(C)C)S(=O)(=O)c2ccccc2)sc2ccccc12 [Compound 100]"
tested_target = "canine TRPM8 (Canis lupus familiaris)"
reported_value = 103

[[record]]
compound = "CNc1ccc(S(=O)(=O)N(CCC2CC2)c2cc3ccccc3s2)cc1 [Compound 688]"
tested_target = "canine TRPM8 (Canis lupus familiaris)"
reported_value = 99

[[record]]
compound = "CC(C)(O)c1c(N(Cc2ccc(F)c(Cl)c2)S(=O)(=O)c2ccc(Br)cc2)sc2ccccc12 [Compound 737]"
tested_target = "canine TRPM8 (Canis lupus familiaris)"
reported_value = 101

[[record]]
compound = "O=C(O)c1ccccc1S(=O)(=O)N(Cc1ccc(F)c(C(F)(F)F)c1)c1sc2ccccc2c1Br [Compound 298]"
tested_target = "canine TRPM8 (Canis lupus familiaris)"
reported_value = 18

[[record]]
compound = "CC(=O)c1c(N(Cc2ccc(F)c(F)c2)S(C)(=O)=O)sc2ccccc12 [Compound 229]"
tested_target = "canine TRPM8 (Canis lupus familiaris)"
reported_value = 99

[[record]]
compound = "NS(=O)(=O)N(Cc1ccc(F)c(C(F)(F)F)c1)c1cc2ccccc2s1 [Compound 300]"
tested_target = "canine TRPM8 (Canis lupus familiaris)"
reported_value = 21

[[record]]
compound = "CC(=O)c1c(N(Cc2ccc(F)c(C(F)(F)F)c2)S(=O)(=O)c2ccc(C(=O)O)cc2)sc2ccccc12 [Compound 318]"
tested_target = "canine TRPM8 (Canis lupus familiaris)"
reported_value = 101

[[record]]
compound = "O=S(=O)(c1ccccc1)N(CCN1CCCCC1)c1sc2ccccc2c1Br [Compound 256]"
tested_target = "canine TRPM8 (Canis lupus familiaris)"
reported_value = 87


---

# TESTED_TARGET: canine TRPM8 (Canis lupus familiaris)
# ASSAY_REMARKS: In Vitro Canine TRPM8 Functional Assay (Ca2+ fluorescence, icilin activation)
# Assay type: cell-based
# RUN_PARAMETERS: HEK293 cells stably expressing canine TRPM8; icilin activation; eight-point dose-response; read-out: IC50
# note: boundary value 50 nM maps to -1; IC50 below it maps to 1

[[record]]
compound = "CC(O)c1c(N(Cc2ccc(F)c(F)c2)S(=O)(=O)c2ccccc2)sc2ccccc12 (centres unmarked) [Compound 222]"
tested_target = "canine TRPM8 (Canis lupus familiaris)"
class_label = 1

[[record]]
compound = "COc1ccc(Br)c(CN(c2sc3ccccc3c2Br)S(=O)(=O)c2ccccc2)c1 [Compound 163]"
tested_target = "canine TRPM8 (Canis lupus familiaris)"
class_label = -1

[[record]]
compound = "CCS(=O)(=O)N(Cc1ccc(F)c(C(F)(F)F)c1)c1sc2ccccc2c1[C@@H](C)O [Compound 535]"
tested_target = "canine TRPM8 (Canis lupus familiaris)"
class_label = 1

[[record]]
compound = "O=S(=O)(c1ccccc1)N(Cc1cccnc1)c1cc2ccccc2s1 [Compound 53]"
tested_target = "canine TRPM8 (Canis lupus familiaris)"
class_label = -1

[[record]]
compound = "Cc1c(N(Cc2ccc(F)c(C(F)(F)F)c2)S(=O)(=O)c2ccc3c(c2)CN(C)CC3)sc2ccccc12 [Compound 767]"
tested_target = "canine TRPM8 (Canis lupus familiaris)"
class_label = -1

[[record]]
compound = "O=c1[nH]c(-c2ccc(S(=O)(=O)N(CCCC(F)(F)F)c3sc4ccccc4c3Br)cc2)no1 [Compound 514]"
tested_target = "canine TRPM8 (Canis lupus familiaris)"
class_label = 1

[[record]]
compound = "O=S(=O)(c1ccccc1)N(Cc1cccc(OC(F)(F)F)c1)c1sc2ccccc2c1Br [Compound 173]"
tested_target = "canine TRPM8 (Canis lupus familiaris)"
class_label = 1

[[record]]
compound = "CS(=O)(=O)N(Cc1ccc(F)c(F)c1)c1sc2ccccc2c1C=O [Compound 209]"
tested_target = "canine TRPM8 (Canis lupus familiaris)"
class_label = 1

